Overview of reported Kq across a group of compounds:
Biological target: human serum albumin (HSA) (Homo sapiens)
Sequence (P02768 25-609): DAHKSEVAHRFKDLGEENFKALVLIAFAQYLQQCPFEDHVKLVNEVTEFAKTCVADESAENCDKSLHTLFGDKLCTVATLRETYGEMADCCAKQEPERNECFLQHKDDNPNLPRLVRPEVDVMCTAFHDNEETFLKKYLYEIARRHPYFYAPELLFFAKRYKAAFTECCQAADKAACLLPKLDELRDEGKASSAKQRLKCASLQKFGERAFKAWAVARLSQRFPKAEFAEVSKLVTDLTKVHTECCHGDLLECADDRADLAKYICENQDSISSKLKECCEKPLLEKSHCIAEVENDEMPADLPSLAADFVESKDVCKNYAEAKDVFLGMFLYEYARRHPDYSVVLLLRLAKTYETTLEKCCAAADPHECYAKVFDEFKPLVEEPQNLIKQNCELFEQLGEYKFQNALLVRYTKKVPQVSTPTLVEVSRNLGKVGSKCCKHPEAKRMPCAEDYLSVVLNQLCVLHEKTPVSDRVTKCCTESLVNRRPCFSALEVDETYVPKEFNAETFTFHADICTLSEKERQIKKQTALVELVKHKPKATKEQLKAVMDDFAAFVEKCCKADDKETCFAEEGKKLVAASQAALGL
Test: Fluorescence emission spectrum (quenching) of HSA with carbamate pesticides
Type: binding
Conditions: 310 K, pH 7.4

CNC(=O)O/N=C(\SC)C(=O)N(C)C    6.605 ± 0.058 10^12 M^−1s^−1
CNC(=O)Oc1cc(C)cc(C(C)C)c1    5.817 ± 0.219 10^12 M^−1s^−1
CNC(=O)Oc1cc(C)cc(C)c1 [XMC, 3,5-xylyl methylcarbamate]    4.830 ± 0.108 10^12 M^−1s^−1
CNC(=O)Oc1ccc(N(C)C)c(C)c1    3.905 ± 0.179 10^12 M^−1s^−1

Field request: Kq | item: CNC(=O)ON=C(CSC)C(C)(C)C
5.876 ± 0.198 10^12 M^−1s^−1
